Biological target: hGIPR (Homo sapiens)
Sequence (P48546 22-466): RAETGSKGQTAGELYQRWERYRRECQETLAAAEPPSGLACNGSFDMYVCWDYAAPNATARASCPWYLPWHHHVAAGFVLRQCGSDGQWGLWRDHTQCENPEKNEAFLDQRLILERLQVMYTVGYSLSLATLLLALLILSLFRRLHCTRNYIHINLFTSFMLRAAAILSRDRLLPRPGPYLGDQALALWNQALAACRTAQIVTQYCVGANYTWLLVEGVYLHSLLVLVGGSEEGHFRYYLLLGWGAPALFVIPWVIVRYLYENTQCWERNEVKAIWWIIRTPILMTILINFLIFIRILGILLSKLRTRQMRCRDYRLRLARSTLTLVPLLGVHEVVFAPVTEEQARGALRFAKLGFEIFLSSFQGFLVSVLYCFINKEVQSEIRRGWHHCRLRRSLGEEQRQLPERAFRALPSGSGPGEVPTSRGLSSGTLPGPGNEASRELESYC
Assay: Functional cAMP activity in the presence of 1% HSA
Type: cell-based
Settings: read-out: cAMP Rel EC50, hGIPR
Starred links: 1 amine or outer side, 2 acyl side, 3 side chain; linkers in the order of their positions; H or OH if unused. Non-standard residues stand in square brackets, D forms with d. Groups on a side chain read outwards from the residue. *: point of attachment. C20 diacid = O=C(O)CCCCCCCCCCCCCCCCCCC(=O)*; C18 diacid = O=C(O)CCCCCCCCCCCCCCCCC(=O)*; γGlu = O=C(O)[C@H](CCC(=O)[*:2])N[*:1]; αMeY = C[C@](N)(Cc1ccc(O)cc1)C(=O)O; 4Pal = N[C@@H](Cc1ccncc1)C(=O)O; αMeL = CC(C)C[C@](C)(N)C(=O)O; Orn = NCCC[C@H](N)C(=O)O; AEEA = NCCOCCOCC(=O)O; Aib = CC(C)(N)C(=O)O
Attribute: EC50
Reply with just the number (in nM).

Worked cases, answers included:
H-Y[Aib]QGTFTSD[4Pal]SQ[αMeL]LDKK([AEEA-γGlu-C18 diacid])AQ[Aib]AFIE[αMeY]LLEGGPSSGAPPPSGS-NH2 [Example 910]
25.7
H-Y[Aib]QGTFTSDFS[Orn][αMeL]LDKK([AEEA-γGlu-C18 diacid])AQ[Aib]AFIEYLLEGGPSSGEPPPSGS-NH2 [Example 131]
91.8

Please turn your attention to the following entry.
According to the records, this substance H-Y[Aib]QGTFTSDYSI[αMeL]LDKQAAK([AEEA-AEEA-γGlu-C20 diacid])QFVEWLIA[Aib]GPSSGEPPPAEG-NH2 [Example 334] displays EC50 of 72.1
